- Target under test: integrin CD11b/CD18 (Homo sapiens, UniProt P11215)
- Construct: expressed in transfected cells; host or cells: K562
- Test name: K562 cell adhesion assay, K562 CD11b/CD18 cells on immobilized fibrinogen (Fg)
- Format: cell-based
- Condition set: K562 CD11b/CD18 cells, immobilized Fg; read-out: EC50 (effective concentration for 50% increase in adhesion), CD11b/CD18 dependent cell adhesion to Fg
Quantity measured: EC50 (µM)

# Molecule smiles, Unit name, Recorded number
records = [
    ("O=C(O)c1ccc(-c2ccc(/C=C3\\SC(=S)N(Cc4ccccc4)C3=O)o2)cc1", "µM", 4),
]
